- tgt: T1, PCSK9 protein (UniProt Q8NBP7 31-692, limits assumed)
- T1 construct: Kit reagent; also called proprotein convertase subtilisin/kexin type 9
- experiment notes: PCSK9-LDLR in vitro binding assay kit, OD450/540; peptide 50 µM, PCSK9 75 ng/mL; inhibition of PCSK9 binding to LDLR
Bridge positions count the residues as written; N and C are the ends. Ends that are not written are not given here.
As shown below, each of these binders has a reported Inhibitory rate (%) value.
Just the number please, in %, no unit attached.

Below, 2 binders whose answers are already recorded.
{"binder": "WEEYLDYVCGRATKSIPPICFGTVFTS (disulfide 9-20 (inferred), Hybrid with the anti-trypsin scaffold BT9; A disulfide bond joins the two Cys of the scaffold) [PCSK9_6]", "reported measurement": 87}
{"binder": "GTNEALDNNCGRATKSIPPICFGTVFTS (disulfide 10-21 (inferred)) [PCSK9_14]", "reported measurement": -8.7}

Could you now consider this next binder?
Data request: Query: Inhibitory rate (%); subject: GTNEALDNNCGRATKSIPPICFVANDLK (disulfide 10-21 (inferred)) [PCSK9_11]
Data returned: 3.6
